These measurements were taken from patent US10112918B2.

# Test system: A-549 (Human lung adenocarcinoma cells)
# ASSAY_INFO: MTT inhibition of tumor cell growth, A-549
# Format: cell-based
# CONDITION_LABEL: Homo sapiens, A549, 48 h, Table 3, single Michael reaction acceptor, modified lactonic ring
Measured IC50 of individual entries
Quick note: give the figure in µM, leave out the unit.

Recorded results for 5 molecules are shown here.
C=C1C(=O)[C@]23CC[C@H]1CC2[C@@]12CCC[C@@](C)(CO[C@H]1OC)C2CC3=O (stereo partly shown) [Compound 22] = 0.67
C=C1C(=O)[C@]23CC[C@H]1CC2[C@@]12CCC[C@@](C)(CO[C@H]1OC)C2C[C@H]3O (stereo partly shown) [Compound 21] = 3.17
C=C1C(=O)[C@]23CC[C@H]1CC2[C@@]12CCC[C@@](C)(COC1)C2CC3=O (stereo partly shown) [Compound 28] = 2.97
C=C1C(=O)[C@]23CC[C@H]1CC2[C@@]12CCC[C@@](C)(COC1)C2C[C@H]3O (stereo partly shown) [Compound 25] = 3.25
C=C1C(=O)C23CC[C@H]1CC2[C@@]12CCC[C@@](C)(C(=O)OC1=O)C2CC3=O (stereo partly shown) [Compound 39] = 17.5

Query block: Could you share which IC50 value was measured for C=C1C(=O)[C@]23CC[C@H]1CC2[C@@]12CCC[C@@](C)(COC1=O)C2C[C@H]3O (stereo partly shown) [Compound 1, 15-oxospiramilactone] ?
Result block: 3.22

Query block: Could you share which IC50 value was measured for C=C1C(=O)C23CC[C@H]1CC2[C@@]12CCC[C@@]4(C)CO[C@@H]1O[C@@H]3CC42 (stereo partly shown) [Compound 36] ?
Result block: 13.7

Query block: Could you share which IC50 value was measured for C=C1C(=O)C23CC[C@H]1CC2[C@@]12CCC[C@@](C)(COS(=O)OC1)C2C[C@H]3O (stereo partly shown) [Compound 41] ?
Result block: 2.18

---

# System: SW-480 (human colon cancer cells)
# ASSAY_INFO: MTT inhibition of tumor cell growth, SW-480
# Type: cell-based
# CONDITION_LABEL: Table 2, derivatives having potential Michael reaction acceptor, 48 h, read-out: IC50 SW-480
# Experimental: 1. Inoculating cells: the culture medium DMEM or RMPI1640 containing 10% fetal bovine serum was used to prepare a single cell suspension, and the cell suspension was inoculated to a 96-well plate at 5000-10000 cells per well (100 μl for each well); Adherent cells were inoculated and cultured for 12 h in advance. […] 4. Colorimetric assay: ELISA Reader (Bio-Rad 680) was used to obtain the light absorption for each well at a wavelength of 595 nm, the results were recorded. […]
VALUE_KIND: IC50

Query block: Could you share which IC50 value was measured for [NH2][Pt]([NH2])([Cl])[Cl] [cis-DDP, reference compound] ?
Result block: 16.6 µM

---

# Tested on: Wnt signaling pathway (Top-Flash reporter gene)
# ASSAY_INFO: Top-Flash Wnt reporter gene assay in HEK293T cells with Wnt3a conditioned medium
# Type: cell-based
# CONDITION_LABEL: Homo sapiens, HEK-293T, 6 h, Table 8; HEK293T, Wnt3a conditioned medium, 6 h; read-out: IC50 (μM), inhibitory activity on the Wnt signaling pathway
# Protocol: HEK293T cells were cultured in DMEM containing 10% fetal bovine serum (Invitrogen) at 37° C., 5% CO2. The cells were passaged every other day. The density was retained at 70˜80% during passage. […] The HEK293T cells used for activity assay of the report gene were transfected by the method as shown in 2). […] The indensity of GFP protein in the cell lysate was measured by fluorimeter FL600 (BIO-TEK Inc. Winooski, Vt.), and taken as internal standard for cell transfection efficiency. […]
The threshold is 20 µM. Values of IC50 beneath it are tagged criterion met; values meeting or exceeding it are tagged criterion not met.

Study these solved cases before continuing.
C=C1C(=O)C23CC[C@H]1CC2[C@@]12CCC[C@@]4(C)CO[C@@H]1O[C@@H]3CC42 (stereo partly shown) = criterion met
C=C1C(=O)C23CC[C@H]1CC2[C@@]12CCC[C@@](C)(C(=O)OC1=O)C2CC3=O (stereo partly shown) = criterion not met
C=C1C(=O)[C@]23CC[C@H]1CC2[C@@]12CCC[C@@](C)(COC1=O)C2C[C@H]3O (stereo partly shown) = criterion met
C=C1C(=O)C23CC[C@H]1CC2[C@]1(COC(C)=O)CCC[C@@](C)(COC(=O)c2cccs2)C1CC3=O (stereo partly shown) = criterion met
C=C1C(=O)[C@]23CC[C@H]1CC2[C@@]12CCC[C@@](C)(CO[C@H]1OC)C2CC3=O (stereo partly shown) = criterion met

Query block: Please determine if C=C1C(=O)[C@]23CC[C@H]1CC2[C@@]12CCC[C@@](C)(COC1)C2CC3=O (stereo partly shown) is below 20 µM in terms of IC50.
Result block: criterion met

Query block: Please determine if C=C1C(=O)C23CC[C@H]1CC2[C@@]12CCC[C@@](C)(COS(=O)OC1)C2C[C@H]3O (stereo partly shown) is below 20 µM in terms of IC50.
Result block: criterion not met

Query block: Please determine if C=C1C(=O)C23CC[C@H]1CC2[C@]1(COS(C)(=O)=O)CCC[C@@](C)(COS(C)(=O)=O)C1CC3=O (stereo partly shown) [Compound 73a] is below 20 µM in terms of IC50.
Result block: criterion not met

Query block: Please determine if C=C1C(=O)[C@]23CC[C@H]1CC2[C@@]12CCC[C@@](C)(CO[C@H]1OC)C2C[C@H]3O (stereo partly shown) is below 20 µM in terms of IC50.
Result block: criterion not met

Query block: Please determine if C=C1C(=O)C23CC[C@H]1CC2[C@]1(COC(C)=O)CCC[C@@](C)(COC(C)=O)C1CC3=O (stereo partly shown) is below 20 µM in terms of IC50.
Result block: criterion met

Query block: Please determine if C=C1C(=O)C23CC[C@H]1CC2[C@]1(C(=O)O)CCC[C@@](C)(CO)C1C[C@H]3O (stereo partly shown) is below 20 µM in terms of IC50.
Result block: criterion not met
